This collection of values is drawn from paper PMC2796602.

studySystem: p300-CH1-GST/HIF-1α C-TAD complex (Homo sapiens, UniProt Q09472)
Sequence (Q09472 323-423, one chain of several): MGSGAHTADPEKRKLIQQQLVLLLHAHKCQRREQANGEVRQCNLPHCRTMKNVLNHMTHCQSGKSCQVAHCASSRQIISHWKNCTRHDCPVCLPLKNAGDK
experimentDescription: Fluorescence polarization competition assay
Format: binding
pIC50: −log10 of the molar value.

- recordSmiles: "CN1C(=O)[C@]2(Cc3cn([C@]45C[C@@]67SS[C@@](CO)(C(=O)N6[C@H]4Nc4ccccc45)N(C)C7=O)c4ccccc34)SS[C@@]1(CO)C(=O)N2C"
  pIC50: 6.27

---

studySystem: GST-tagged CH1 domain of human p300 (aa residues 323-423) (Homo sapiens)
Sequence (Q09472 323-423): as the sequence (Q09472 323-423, one chain of several) above
pKd: −log10 of the molar value.

- recordSmiles: "CN1C(=O)[C@]2(Cc3cn([C@]45C[C@@]67SS[C@@](CO)(C(=O)N6[C@H]4Nc4ccccc45)N(C)C7=O)c4ccccc34)SS[C@@]1(CO)C(=O)N2C"
  pKd: 6.27
